- System Tested: THR alpha-LBD (Homo sapiens, UniProt P10827)
- Construct: except that THR alpha-LBD of a final concentration 0.25 nM was used; purchased Invitrogen PV4687
- Sequence (P10827 163-410 isoform P10827-2 limits assumed, other chains not shown): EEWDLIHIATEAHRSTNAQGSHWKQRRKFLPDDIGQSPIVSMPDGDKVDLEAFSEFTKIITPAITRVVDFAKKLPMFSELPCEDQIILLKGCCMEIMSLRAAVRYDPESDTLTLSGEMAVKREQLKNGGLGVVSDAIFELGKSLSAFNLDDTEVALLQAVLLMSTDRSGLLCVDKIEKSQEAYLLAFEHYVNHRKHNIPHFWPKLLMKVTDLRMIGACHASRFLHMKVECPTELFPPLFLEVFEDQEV
- Procedure Summary: THR-α Coactivator Peptide Recruitment Assay (LanthaScreen TR-FRET)
- Type: biochemical
- Experimental Parameters: TR-FRET coactivator recruitment, THR alpha-LBD 0.25 nM
Assay Endpoint: THRα Emax

molecule=O=c1[nH]c(=O)n(-c2cc(Cl)c(Oc3ccc(O)c(S(=O)(=O)N[C@H]4C[C@H](O)C4)c3)c(Cl)c2)nc1C(F)F result="A (85~110)"
molecule=CS(=O)(=O)[C@H]1C[C@H](NS(=O)(=O)c2cc(Oc3c(Cl)cc(-n4nc(C(F)F)c(=O)[nH]c4=O)cc3Cl)ccc2O)C1 result="B (40~85)"
molecule=O=C(NC1CC1)C1(NS(=O)(=O)c2cc(Oc3c(Cl)cc(-n4nc(C(F)F)c(=O)[nH]c4=O)cc3Cl)ncc2O)CCC1 result="C (<40)"
molecule=N#C[C@H]1C[C@H](NS(=O)(=O)c2cc(Oc3c(Cl)cc(-n4nc(C(F)F)c(=O)[nH]c4=O)cc3Cl)ncc2O)C1 result="B (40~85)"
molecule=O=c1[nH]c(=O)n(-c2cc(Cl)c(Oc3cc(S(=O)(=O)NC4COC4)c(O)cn3)c(Cl)c2)nc1C(F)F result="A (85~110)"

Prompt: Could you share what THRα Emax was measured for O=c1[nH]c(=O)n(-c2cc(Cl)c(Oc3ccc(O)c(S(=O)(=O)NC4CS(=O)(=O)C4)c3)c(Cl)c2)nc1C(F)F , tested on THR alpha-LBD (Homo sapiens, UniProt P10827)?
Completion: A (85~110)

Prompt: Give the reported THRα Emax for O=c1[nH]c(=O)n(-c2cc(Cl)c(Oc3ccc(O)c(S(=O)(=O)N4CCNCC4)c3)c(Cl)c2)nc1C(F)F (system: THR alpha-LBD (Homo sapiens, UniProt P10827)).
Completion: B (40~85)

Prompt: Find the measured THRα Emax: item O=c1[nH]c(=O)n(-c2cc(Cl)c(Oc3ccc(O)c(S(=O)(=O)N[C@@H]4CC[C@H](O)C4)c3)c(Cl)c2)nc1C(F)F , target or system THR alpha-LBD (Homo sapiens, UniProt P10827).
Completion: B (40~85)

---

- System Tested: THR beta-LBD (Homo sapiens)
- Construct: THR beta-LBD (the final concentration is 0.5 nM) was added to the 384-well assay plate; purchased Invitrogen PV4686
- Procedure Summary: THR-β Coactivator Peptide Recruitment Assay (LanthaScreen TR-FRET)
- Assay type: biochemical
- Experimental Parameters: TR-FRET coactivator recruitment, THR beta-LBD 0.5 nM
Assay Endpoint: THRβ Emax

Sample answers from the record:
compound="O=C(NC1CCC1)C1(NS(=O)(=O)c2cc(Oc3c(Cl)cc(-n4nc(C(F)F)c(=O)[nH]c4=O)cc3Cl)ncc2O)CC1 [Compound 115]" result="C (<75)"
compound="O=c1[nH]c(=O)n(-c2cc(Cl)c(Oc3cc(S(=O)(=O)NC45CCC(O)(C4)C5)c(O)cn3)c(Cl)c2)nc1C(F)F [Compound 159]" result="B (75~90)"
compound="O=c1[nH]c(=O)n(-c2cc(Cl)c(Oc3cc(S(=O)(=O)N[C@H]4CC[C@@H](O)CC4)c(O)cn3)c(Cl)c2)nc1C(F)F [Compound 144]" result="C (<75)"
compound="CCS(=O)(=O)c1cc(Oc2c(Cl)cc(-n3nc(C(F)F)c(=O)[nH]c3=O)cc2Cl)ncc1O [Compound 151]" result="A (90~110)"
compound="CS(=O)(=O)c1cc(Oc2c(Cl)cc(-n3nc(C(F)F)c(=O)[nH]c3=O)cc2Cl)ncc1O [Compound 146]" result="A (90~110)"

Prompt: Record O=C(NCC1(NS(=O)(=O)c2cc(Oc3c(Cl)cc(-n4nc(C(F)F)c(=O)[nH]c4=O)cc3Cl)ccc2O)CC1)C1CC1 [Compound 84] : what is its THRβ Emax with THR beta-LBD (Homo sapiens)?
Completion: A (90~110)

Prompt: Please tell me: THRβ Emax of CO[C@H]1C[C@@H](NS(=O)(=O)c2cc(Oc3c(Cl)cc(-n4nc(C(F)F)c(=O)[nH]c4=O)cc3Cl)ccc2O)C1 [Compound 37] , system THR beta-LBD (Homo sapiens)?
Completion: B (75~90)

Prompt: Lookup: THRβ Emax / THR beta-LBD (Homo sapiens) / O=c1[nH]c(=O)n(-c2cc(Cl)c(Oc3cc(S(=O)(=O)NC4CCCC4)c(O)cn3)c(Cl)c2)nc1C(F)F [Compound 124]
Completion: B (75~90)

Prompt: // map CO[C@H]1C[C@@H](NS(=O)(=O)c2cc(Oc3c(Cl)cc(-n4nc(C(F)F)c(=O)[nH]c4=O)cc3Cl)ncc2O)C1 [Compound 140] to recorded THRβ Emax (system: THR beta-LBD (Homo sapiens))
Completion: B (75~90)

Prompt: API: value(readout=THRβ Emax, system=THR beta-LBD (Homo sapiens)) for record CN(C)S(=O)(=O)c1cc(Oc2c(Cl)cc(-n3nc(C(F)F)c(=O)[nH]c3=O)cc2Cl)ncc1O [Compound 113]
Completion: B (75~90)

Prompt: Which measured THRβ Emax belongs to CNC(=O)C1(N[S@SP3](=O)(=O)c2cc(Oc3c(Cl)cc(-n4nc(C(F)(F)F)c(=O)[nH]c4=O)cc3Cl)ccc2O)CC1 [Compound 25] , tested on THR beta-LBD (Homo sapiens)?
Completion: B (75~90)

Prompt: Checklist item: THRβ Emax tested on THR beta-LBD (Homo sapiens), entry O=C(NC1CCC1)c1cc(Oc2c(Cl)cc(-n3nc(C(F)F)c(=O)[nH]c3=O)cc2Cl)c(F)cc1O [Compound 11] , value?
Completion: A (90~110)

Prompt: THR beta-LBD (Homo sapiens) / THRβ Emax / CCNS(=O)(=O)c1cc(Oc2c(Cl)cc(-n3nc(C(F)F)c(=O)[nH]c3=O)cc2Cl)ncc1O [Compound 112] : value?
Completion: A (90~110)

---

- System Tested: THR beta-LBD (Homo sapiens)
- Construct: THR beta-LBD (the final concentration is 0.5 nM) was added to the 384-well assay plate; purchased Invitrogen PV4686
- Sequence (P10828 217-461 limits assumed): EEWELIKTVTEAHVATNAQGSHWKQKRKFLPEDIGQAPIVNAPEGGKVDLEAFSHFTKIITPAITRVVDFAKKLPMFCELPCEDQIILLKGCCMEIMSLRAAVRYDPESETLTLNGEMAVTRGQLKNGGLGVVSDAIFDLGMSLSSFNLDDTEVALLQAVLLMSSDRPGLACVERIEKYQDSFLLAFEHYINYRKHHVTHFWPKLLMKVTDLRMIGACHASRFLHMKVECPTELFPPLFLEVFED
- Procedure Summary: THR-β Coactivator Peptide Recruitment Assay (LanthaScreen TR-FRET)
- Type: biochemical
pEC50: −log10 of the molar value.
Below, each entry is listed with its recorded pEC50.

compound=O=C(N[C@H]1C[C@H](NS(=O)(=O)c2cc(Oc3c(Cl)cc(-n4nc(C(F)F)c(=O)[nH]c4=O)cc3Cl)ccc2O)C1)C1CC1 assay_endpoint=pEC50 result="7.00 to 7.70"

Prompt: Param item = N#CC1CC(N[S@SP3](=O)(=O)c2cc(Oc3c(Cl)cc(-n4nc(C(F)F)c(=O)[nH]c4=O)cc3Cl)ccc2O)C1 (centres unmarked) ; retrieve measured pEC50.
Completion: > 8.70

---

- System Tested: THR alpha-LBD (Homo sapiens)
- Construct: except that THR alpha-LBD of a final concentration 0.25 nM was used; purchased Invitrogen PV4687
- Procedure Summary: THR-α Coactivator Peptide Recruitment Assay (LanthaScreen TR-FRET)
- Type: biochemical
- Experimental Parameters: TR-FRET coactivator recruitment, THR alpha-LBD 0.25 nM; read-out: THRα EC50
Assay Endpoint: EC50

Worked examples follow.
smiles_str=O=C(CNS(=O)(=O)c1cc(Oc2c(Cl)cc(-n3nc(C(F)F)c(=O)[nH]c3=O)cc2Cl)ncc1O)NC1CC1 assay_endpoint=EC50 result="> 1000 nM"
smiles_str=O=c1[nH]c(=O)n(-c2cc(Cl)c(Oc3cc(S(=O)(=O)NC45CC(O)(C4)C5)c(O)cn3)c(Cl)c2)nc1C(F)F assay_endpoint=EC50 result="200 to 1000 nM"

Prompt: Form: Entry = O=c1[nH]c(=O)n(-c2cc(Cl)c(Oc3cc(S(=O)(=O)N[C@@H]4CCOC4)c(O)cn3)c(Cl)c2)nc1C(F)F | System = THR alpha-LBD (Homo sapiens) | EC50 = ____
Completion: 2 to 200 nM

---

This section presents compounds with their documented pEC50 values.
- System Tested: THR alpha-LBD (Homo sapiens)
- Construct: except that THR alpha-LBD of a final concentration 0.25 nM was used; purchased Invitrogen PV4687
- Procedure Summary: THR-α Coactivator Peptide Recruitment Assay (LanthaScreen TR-FRET)
- Format: biochemical
- Experimental Parameters: TR-FRET coactivator recruitment, THR alpha-LBD 0.25 nM; read-out: THRα EC50
pEC50: −log10 of the molar value.

Prompt: Checklist item: pEC50 tested on THR alpha-LBD (Homo sapiens), entry CN(C)C(=O)N1CC(NS(=O)(=O)c2cc(Oc3c(Cl)cc(-n4nc(C(F)F)c(=O)[nH]c4=O)cc3Cl)ccc2O)C1 , value?
Completion: < 6.00

Prompt: GET /values?readout=pEC50&system=THR alpha-LBD (Homo sapiens)&item= Cc1nn(-c2cc(Cl)c(Oc3cc(S(=O)(=O)N[C@H]4C[C@H](O)C4)c(O)cn3)c(Cl)c2)c(=O)[nH]c1=O
Completion: 6.00 to 6.70

Prompt: Which pEC50 is reported with THR alpha-LBD (Homo sapiens) for this entry: N#C[C@H]1C[C@@H](NS(=O)(=O)c2cc(Oc3c(Cl)cc(-n4nc(C(F)F)c(=O)[nH]c4=O)cc3Cl)ccc2O)C1 ?
Completion: 6.70 to 8.70

Prompt: Query pEC50 on THR alpha-LBD (Homo sapiens) for O=C(CNS(=O)(=O)c1cc(Oc2c(Cl)cc(-n3nc(C(F)F)c(=O)[nH]c3=O)cc2Cl)ccc1O)N1CCC1
Completion: < 6.00

Prompt: Return pEC50 measured with THR alpha-LBD (Homo sapiens) given this compound: O=c1[nH]c(=O)n(-c2cc(Cl)c(S(=O)(=O)c3ccc(O)c(C4CCC4)c3)c(Cl)c2)nc1C(F)(F)F
Completion: 6.00 to 6.70

From: patent US12291518B2
